Experiment: Biodistribution of 67Ga-radiolabeled peptides
Set-up: species or system mouse
Settings: mouse, in vivo, iv, 100 uCi, total radioactivity; brain without perfusion, 2 min post injection; CD1 female mice, i.v. tail vein, 100 µL of 25 µM 67Ga-peptide; γ counter; mean ± SD, n = 3; read-out: Tissue distribution, Brain (brain uptake)
Residues, ends and D or L forms follow the SMILES beside them.
experimental-readout: tissue uptake at 2 min
Give the figure together with its unit, number first.

Input CC[C@H](C)[C@H](NC(=O)CNC(=O)[C@H](CCCNC(=N)N)NC(=O)[C@H](Cc1ccc(O)cc1)NC(=O)[C@H](CS)NC(=O)[C@@H](NC(=O)[C@H](CCCNC(=N)N)NC(=O)[C@H](Cc1ccccc1)NC(=O)[C@H](CS)NC(=O)[C@H](Cc1c[nH]c2ccccc12)NC(=O)[C@@H](N)CCCCN)C(C)C)C(=O)N[C@@H](CS)C(=O)N[C@@H](Cc1ccc(O)cc1)C(=O)N[C@@H](CCCNC(=N)N)C(=O)N[C@@H](CCCNC(=N)N)C(=O)N[C@@H](CS)C(=O)N[C@@H](CCCNC(=N)N)C(N)=O [non-BBBpS_2] (H-KWCFRVCYRGICYRRCR-NH2) . Output tissue uptake at 2 min: 0.27 %ID/g

====

Test: Biodistribution of 67Ga-radiolabeled peptides
Design: species or system mouse
Conditions: female, CD1, mouse, in vivo, iv, 100 uCi, total radioactivity, Tissue distribution, Heart
Residues, ends and D or L forms follow the SMILES beside them. *: point of attachment. NODAGA = O=C(O)CN1CCN(CC(=O)O)CCN(C(CCC(=O)*)C(=O)O)CC1
experimental-readout: tissue uptake at 1 h
Please append the unit to your numeric answer.

Use the examples below as a reference point.
compound="CC[C@H](C)[C@H](NC(=O)[C@H](Cc1c[nH]cn1)NC(=O)CCC(C(=O)O)N1CCN(CC(=O)O)CCN(CC(=O)O)CC1)C(=O)N[C@@H](CCC(N)=O)C(=O)N[C@@H](CC(C)C)C(=O)N[C@@H](CO)C(=O)N1CCC[C@H]1C(=O)N[C@@H](Cc1ccccc1)C(=O)N[C@@H](CO)C(=O)N[C@@H](CCC(N)=O)C(=O)N[C@@H](CO)C(=O)N[C@@H](Cc1c[nH]c2ccccc12)C(=O)N[C@@H](CCCNC(=N)N)C(N)=O (stereo partly shown) [67Ga-BBBpS_5, metal not drawn] ({NODAGA}-HIQLSPFSQSWR-NH2)" measured="0.5 %ID/g"
compound="CC(C)C[C@H](NC(=O)[C@H](Cc1c[nH]c2ccccc12)NC(=O)[C@H](Cc1ccccc1)NC(=O)[C@H](CCC(N)=O)NC(=O)[C@H](C)NC(=O)[C@H](CO)NC(=O)[C@H](CC(=O)O)NC(=O)[C@@H]1CCCN1C(=O)[C@H](CCCNC(=N)N)NC(=O)[C@H](CC(N)=O)NC(=O)CCC(C(=O)O)N1CCN(CC(=O)O)CCN(CC(=O)O)CC1)C(=O)N[C@@H](Cc1c[nH]cn1)C(=O)N[C@@H](Cc1c[nH]cn1)C(N)=O (stereo partly shown) [67Ga-BBBpS_9, metal not drawn] ({NODAGA}-NRPDSAQFWLHH-NH2)" measured="0.3 %ID/g"
compound="CC[C@H](C)[C@H](NC(=O)[C@H](C)NC(=O)CNC(=O)[C@H](CCCCN)NC(=O)[C@H](Cc1ccc(O)cc1)NC(=O)[C@H](CCCCN)NC(=O)CCC(C(=O)O)N1CCN(CC(=O)O)CCN(CC(=O)O)CC1)C(=O)N[C@H](C(=O)NCC(=O)N[C@@H](CC(N)=O)C(=O)N[C@H](C(=O)N[C@@H](CCCCN)C(N)=O)[C@@H](C)CC)[C@@H](C)CC (stereo partly shown) [67Ga-BBBpS_1, metal not drawn] ({NODAGA}-KYKGAIIGNIK-NH2)" measured="0.3 %ID/g"

Next:
Entry under test: CC[C@H](C)[C@H](NC(=O)[C@H](C)NC(=O)CNC(=O)[C@H](CO)NC(=O)[C@H](CCCNC(=N)N)NC(=O)[C@H](Cc1ccc(O)cc1)NC(=O)[C@H](CCCCN)NC(=O)CCC(C(=O)O)N1CCN(CC(=O)O)CCN(CC(=O)O)CC1)C(=O)N[C@H](C(=O)N[C@H](C(=O)NCC(=O)N[C@@H](Cc1ccc(O)cc1)C(N)=O)[C@@H](C)CC)[C@@H](C)O (stereo partly shown) [67Ga-BBBpS_2, metal not drawn] ({NODAGA}-KYRSGAITIGY-NH2) . Its tissue uptake at 1 h was 0.8 %ID/g

====

Assay: Cytotoxicity, CellTiter-Blue cell viability assay
Assay type: cell-based
Details: human
experimental-readout: IC50 at 24 h

What the record says about CSCC[C@H](NC(=O)[C@H](CC(C)C)NC(=O)CNC(=O)[C@H](Cc1ccccc1)NC(=O)[C@H](Cc1ccccc1)NC(=O)[C@H](CCC(N)=O)NC(=O)[C@H](CCC(N)=O)NC(=O)[C@@H]1CCCN1C(=O)[C@H](CCCCN)NC(=O)[C@@H]1CCCN1C(=O)[C@@H](N)CCCN=C(N)N)C(N)=O [BBBpS_10] : IC50 at 24 h is > 100 µM

====

Assay: Biodistribution of 67Ga-radiolabeled peptides
Parameters: species or system mouse
Conditions: female, CD1, mouse, in vivo, iv, 100 uCi, total radioactivity, Tissue distribution, Kidney
Residues, ends and D or L forms follow the SMILES beside them. *: point of attachment. NODAGA = O=C(O)CN1CCN(CC(=O)O)CCN(C(CCC(=O)*)C(=O)O)CC1
experimental-readout: tissue uptake at 1 h (%ID/g)
// units = %ID/g; emit number, no label

The compound listed as CC[C@H](C)[C@H](NC(=O)[C@H](Cc1c[nH]cn1)NC(=O)CCC(C(=O)O)N1CCN(CC(=O)O)CCN(CC(=O)O)CC1)C(=O)N[C@@H](CCC(N)=O)C(=O)N[C@@H](CC(C)C)C(=O)N[C@@H](CO)C(=O)N1CCC[C@H]1C(=O)N[C@@H](Cc1ccccc1)C(=O)N[C@@H](CO)C(=O)N[C@@H](CCC(N)=O)C(=O)N[C@@H](CO)C(=O)N[C@@H](Cc1c[nH]c2ccccc12)C(=O)N[C@@H](CCCNC(=N)N)C(N)=O (stereo partly shown) [67Ga-BBBpS_5, metal not drawn] ({NODAGA}-HIQLSPFSQSWR-NH2) has a reported tissue uptake at 1 h of 1.1

====

Assay: Biodistribution of 67Ga-radiolabeled peptides
Design: species or system mouse
Details: female, CD1, mouse, in vivo, iv, 100 uCi, total radioactivity, Tissue distribution, Liver
Residues, ends and D or L forms follow the SMILES beside them. *: point of attachment. NODAGA = O=C(O)CN1CCN(CC(=O)O)CCN(C(CCC(=O)*)C(=O)O)CC1
Catalogue of tissue uptake at 2 min readings, one per entry.
Numeric answer only, unit %ID/g assumed.

Below, each entry is followed by its recorded tissue uptake at 2 min result.
molecule="CC(C)C[C@H](NC(=O)[C@H](Cc1c[nH]c2ccccc12)NC(=O)[C@H](Cc1ccccc1)NC(=O)[C@H](CCC(N)=O)NC(=O)[C@H](C)NC(=O)[C@H](CO)NC(=O)[C@H](CC(=O)O)NC(=O)[C@@H]1CCCN1C(=O)[C@H](CCCNC(=N)N)NC(=O)[C@H](CC(N)=O)NC(=O)CCC(C(=O)O)N1CCN(CC(=O)O)CCN(CC(=O)O)CC1)C(=O)N[C@@H](Cc1c[nH]cn1)C(=O)N[C@@H](Cc1c[nH]cn1)C(N)=O (stereo partly shown) [67Ga-BBBpS_9, metal not drawn] ({NODAGA}-NRPDSAQFWLHH-NH2)" experimental_readout="tissue uptake at 2 min" measured=4.7
molecule="CC[C@H](C)[C@H](NC(=O)[C@H](C)NC(=O)CNC(=O)[C@H](CCCCN)NC(=O)[C@H](Cc1ccc(O)cc1)NC(=O)[C@H](CCCCN)NC(=O)CCC(C(=O)O)N1CCN(CC(=O)O)CCN(CC(=O)O)CC1)C(=O)N[C@H](C(=O)NCC(=O)N[C@@H](CC(N)=O)C(=O)N[C@H](C(=O)N[C@@H](CCCCN)C(N)=O)[C@@H](C)CC)[C@@H](C)CC (stereo partly shown) [67Ga-BBBpS_1, metal not drawn] ({NODAGA}-KYKGAIIGNIK-NH2)" experimental_readout="tissue uptake at 2 min" measured=4.1

The value of tissue uptake at 2 min measured for the molecule CC[C@H](C)[C@H](NC(=O)[C@H](Cc1c[nH]cn1)NC(=O)CCC(C(=O)O)N1CCN(CC(=O)O)CCN(CC(=O)O)CC1)C(=O)N[C@@H](CCC(N)=O)C(=O)N[C@@H](CC(C)C)C(=O)N[C@@H](CO)C(=O)N1CCC[C@H]1C(=O)N[C@@H](Cc1ccccc1)C(=O)N[C@@H](CO)C(=O)N[C@@H](CCC(N)=O)C(=O)N[C@@H](CO)C(=O)N[C@@H](Cc1c[nH]c2ccccc12)C(=O)N[C@@H](CCCNC(=N)N)C(N)=O (stereo partly shown) [67Ga-BBBpS_5, metal not drawn] ({NODAGA}-HIQLSPFSQSWR-NH2) turned out to be 5.2

Lab note: CC[C@H](C)[C@H](NC(=O)[C@H](C)NC(=O)CNC(=O)[C@H](CO)NC(=O)[C@H](CCCNC(=N)N)NC(=O)[C@H](Cc1ccc(O)cc1)NC(=O)[C@H](CCCCN)NC(=O)CCC(C(=O)O)N1CCN(CC(=O)O)CCN(CC(=O)O)CC1)C(=O)N[C@H](C(=O)N[C@H](C(=O)NCC(=O)N[C@@H](Cc1ccc(O)cc1)C(N)=O)[C@@H](C)CC)[C@@H](C)O (stereo partly shown) [67Ga-BBBpS_2, metal not drawn] ({NODAGA}-KYRSGAITIGY-NH2) gave tissue uptake at 2 min of 3.5
